- assay.name: Aggregation property of compound in PBS assessed as critical aggregation concentration
- Assay type: physicochemical
- experimental.setup: buffer
property.label: CAC (µM)
Kindly provide the numeric value in µM only, without the unit symbol.

Task item: Give recorded CAC. CCCCCCCCCC(=O)N[C@H](CNC(=O)N[C@@H](CCN)CNC(=O)N[C@H](CN[C@H](CNC(=O)N[C@@H](CCN)CNC(N)=O)CC(C)C)CC(C)C)Cc1ccccc1
Reply: 40

Task item: Give recorded CAC. CCCCCCCCCC(=O)N[C@H](CNC(=O)N[C@@H](CCN)CNC(=O)N[C@@H](CCN)CN[C@H](CNC(=O)N[C@@H](CCN)CNC(N)=O)CC(C)C)Cc1ccccc1
Reply: 87

Task item: Give recorded CAC. CCCCCCCCCC(=O)N[C@H](CNC(=O)N[C@@H](CCN)CNC(=O)N[C@@H](CCN)CN[C@H](CNC(=O)N[C@H](CNC(N)=O)CC(C)C)CC(C)C)Cc1ccccc1
Reply: 56

***
Task item: Give recorded CAC. CCCCCCCCCC(=O)N[C@H](CNC(=O)N[C@@H](CCCCN)CNC(=O)N[C@@H](CCCCN)CN[C@H](CNC(=O)N[C@@H](CCCCN)CNC(N)=O)CC(C)C)Cc1ccccc1
Reply: 79

Each recorded value in this set is attributed to ChEMBL document CHEMBL5625212.
